assay: Lipid purity change after storage in EtOH for 96 h at 25 or 37 °C; type: physicochemical; conditions: 37° C.
value_kind: Lipid % change purity in EtOH, 37° C., 96 h (%)

Field: example entries. Status: answers known.
Looking up CCCCCCCCCN(CCCCCCCCC)CCN(CCCCCCCCC)CC(=O)N1CCN(C(=O)CN(CCCCCCCCC)CCCCCOC(=O)OC)CC1 [Compound 109] , I see its Lipid % change purity in EtOH, 37° C., 96 h listed as 4.1

Looking up CCCCC/C=C\CCN(CC/C=C\CCCCC)CCN(CC/C=C\CCCCC)CC(=O)N1CCN(C(=O)CN(CCCCCCCCC)CCCCCCCC(=O)OC)CC1 [Compound 139] , I found its Lipid % change purity in EtOH, 37° C., 96 h recorded as 1.49

CCCCCCCCCN(CCCCCCCCC)CCN(CCCCCCCCC)CC(=O)N1CCC(CCOC(=O)CN(CCCCCCCCC)CCCCCCCCC)C1 (stereo not drawn) [Compound 103] has a reported Lipid % change purity in EtOH, 37° C., 96 h of 5.7

Noted for CCCCCCCCCCCCCCN(CCCCCCCC(=O)OCCCCC)CCC1CCCN(C(=O)CN(CCCCCCCCC)CCN(CCCCCCCCC)CCCCCCCCC)C1 (stereo not drawn) [Compound 120] : its Lipid % change purity in EtOH, 37° C., 96 h reads 2.9

Entry CCCCCCCCCCCCCCN(CCCCCCCC(=O)OCCCCC)CCC1CCN(C(=O)CN(CCCCCCCCC)CCN(CCCCCCCCC)CCCCCCCCC)C1 (stereo not drawn) [Compound 124] — recorded Lipid % change purity in EtOH, 37° C., 96 h = −3.5

[A] CCCCCCCCCN(CCCCCCCCC)CCN(CCCCCCCCC)CC(=O)N1CCN(C(=O)CN(CCCCCCCCC)CCCC(=O)SCCCCC)CC1 [Compound 134]
[B] CCCCCCCCCN(CCCCCCCCC)CCN(CCCCCCCCC)CC(=O)N(C)CCN(C)C(=O)CN(CCCCCCCCC)CCCC(=O)OCCCCC [Compound 152]
Which record shows the lower Lipid % change purity in EtOH, 37° C., 96 h: the first, A , or the second, B ? Returns: label corresponding to the selected item.
B
